Task for the reader: assign each of the following molecules its reported Stability in Powder Concentrate (content by LCMSMS).
Type: physicochemical
Conditions: stored at room temperature (21-25° C.), day 210
Numbers only, in mg/g powder.

INSERT INTO assay_data (molecule, obs_value) VALUES
  ('C=C(C)[C@@H]1CCC(C)=C[C@H]1c1c(O)cc(CCCCC)cc1O [CBD, cannabidiol, reference compound]', 5.83),
  ('CCCCCc1cc(O)c(C/C=C(\C)CCC=C(C)C)c(O)c1', 1.06),
  ('CCCCCc1cc(O)c2c(c1)OC1(C)CCC3C1C2C3(C)C (stereo not shown)', 0.052),
  ('Cc1c(C)c2c(c(C)c1OC(=O)CCC(=O)O)CC[C@@](C)(CCC[C@H](C)CCC[C@H](C)CCCC(C)C)O2 [α-Tocopheryl succinate]', 1.80),
  ('CCCCCc1cc(O)c2c(c1)OC(C)(CCC=C(C)C)C=C2 (stereo not shown)', 0.072),
  ('C=C(C)[C@@H]1CCC(C)=C[C@H]1c1c(O)cc(CCCCC)c(C(=O)O)c1O', 0.427),
  ('CCCc1cc(O)c2c(c1)OC(C)(C)[C@@H]1CCC(C)=C[C@@H]21 [THCV, delta-9-tetrahydrocannabivarin]', 0.662),
  ('CCCCCc1cc2c(c(O)c1C(=O)O)[C@@H]1C=C(C)CC[C@H]1C(C)(C)O2 [D9 THCA, delta-9-tetrahydrocannabinolic acid]', 0.151),
  ('Cc1c(C)c2c(c(C)c1O)CC[C@@](C)(CCC[C@H](C)CCC[C@H](C)CCCC(C)C)O2', 4.84),
  ('C=C(C)[C@@H]1CCC(C)=C[C@H]1c1c(O)cc(CCC)cc1O', 0.049);

Give me Stability in Powder Concentrate (content by LCMSMS) for each of these molecules, listed below.
1. CCCCCc1cc(O)c2c(c1)OC(C)(C)[C@@H]1CCC(C)=C[C@@H]21 [D9 THC, delta-9-tetrahydrocannabinol, reference compound]
2. CCCCCc1cc(O)c2c(c1)OC(C)(C)c1ccc(C)cc1-2
3. CC(=O)Oc1c(C)c(C)c2c(c1C)CCC(C)(CCC[C@H](C)CCC[C@H](C)CCCC(C)C)O2 (stereo partly drawn) [α-Tocopheryl acetate]

[2.54, 0.501, 2.15]

----------
Task for the reader: assign each of the following compounds its reported Stability in AB White, 21-25° C. (content by LCMSMS).
Assay: Stability of cannabinoid and Vitamin E components of Beverage 1 (AB White) stored at 8° C. and 21-25° C., LCMSMS over 570 days
Assay type: physicochemical
Conditions: beverage stored at 21-25° C., day 60

Use the examples below as a reference point.
INSERT INTO measurements (compound, obs_value) VALUES
  ('CCCCCc1cc(O)c2c(c1)OC(C)(C)c1ccc(C)cc1-2 [CBN, cannabinol]', '2.63 µg/mL'),
  ('C=C(C)[C@@H]1CCC(C)=C[C@H]1c1c(O)cc(CCC)cc1O [CBDV, cannabidivarin]', '0.149 µg/mL'),
  ('CCCCCc1cc2c(c(O)c1C(=O)O)[C@@H]1C=C(C)CC[C@H]1C(C)(C)O2 [D9 THCA, delta-9-tetrahydrocannabinolic acid]', '0.896 µg/mL'),
  ('CCCCCc1cc(O)c2c(c1)OC(C)(C)[C@@H]1CCC(C)=C[C@@H]21 [D9 THC, delta-9-tetrahydrocannabinol, reference compound]', '11.9 µg/mL'),
  ('CCCCCc1cc(O)c2c(c1)OC1(C)CCC3C1C2C3(C)C (stereo not drawn) [CBL, cannabicyclol]', '0.544 µg/mL'),
  ('CCCCCc1cc(O)c2c(c1)OC(C)(CCC=C(C)C)C=C2 (stereo not drawn) [CBC, cannabichromene]', '0.306 µg/mL');

Give me Stability in AB White, 21-25° C. (content by LCMSMS) for each of these compounds, listed below.
1. CCCc1cc(O)c2c(c1)OC(C)(C)[C@@H]1CCC(C)=C[C@@H]21 [THCV, delta-9-tetrahydrocannabivarin]
2. CCCCCc1cc(O)c(C/C=C(\C)CCC=C(C)C)c(O)c1 [CBG, cannabigerol]

3.50 µg/mL
4.83 µg/mL

Please give measured Stability in AB White, 21-25° C. (content by LCMSMS) of the following entry: C=C(C)[C@@H]1CCC(C)=C[C@H]1c1c(O)cc(CCCCC)c(C(=O)O)c1O [CBDA, cannabidiolic acid]
1.68 µg/mL

----------
Assay: Stability of cannabinoid and Vitamin E components of Beverage 1 (AB White) stored at 8° C. and 21-25° C., LCMSMS over 570 days
Type: physicochemical
Conditions: beverage stored at 8° C., day 540
Result type: Stability in AB White, 8° C. (content by LCMSMS) (µg/mL)
Answers are plain numbers, in µg/mL.

Use the examples below as a reference point.
INSERT INTO measurements (compound, u, obs_value) VALUES
  ('C=C(C)[C@@H]1CCC(C)=C[C@H]1c1c(O)cc(CCCCC)cc1O [CBD, cannabidiol, reference compound]', 'µg/mL', 26.51),
  ('CCCCCc1cc(O)c2c(c1)OC(C)(CCC=C(C)C)C=C2 (stereo not shown)', 'µg/mL', 0.299),
  ('C=C(C)[C@@H]1CCC(C)=C[C@H]1c1c(O)cc(CCCCC)c(C(=O)O)c1O', 'µg/mL', 1.61),
  ('CCCc1cc(O)c2c(c1)OC(C)(C)[C@@H]1CCC(C)=C[C@@H]21 [THCV, delta-9-tetrahydrocannabivarin]', 'µg/mL', 3.32);

Give me Stability in AB White, 8° C. (content by LCMSMS) for each of these compounds, listed below.
1. C=C(C)[C@@H]1CCC(C)=C[C@H]1c1c(O)cc(CCC)cc1O
2. CCCCCc1cc(O)c(C/C=C(\C)CCC=C(C)C)c(O)c1
3. CCCCCc1cc2c(c(O)c1C(=O)O)[C@@H]1C=C(C)CC[C@H]1C(C)(C)O2 [D9 THCA, delta-9-tetrahydrocannabinolic acid]
4. CCCCCc1cc(O)c2c(c1)OC(C)(C)c1ccc(C)cc1-2
5. CCCCCc1cc(O)c2c(c1)OC1(C)CCC3C1C2C3(C)C (stereo not shown)
6. CCCCCc1cc(O)c2c(c1)OC(C)(C)[C@@H]1CCC(C)=C[C@@H]21 [D9 THC, delta-9-tetrahydrocannabinol, reference compound]

1. 0.139
2. 4.53
3. 0.877
4. 2.56
5. 0.514
6. 11.27

----------
Test: Stability of cannabinoid and Vitamin E components of Beverage 2 (AB Red) stored at 8° C. and 21-25° C., LCMSMS over 570 days
Settings: 8° C., 330 days
Note to self: class = bucket of Stability of Cannabinoids in AB Red, per range 1: < 0.5 µg/mL; range 2: ≥ 0.5 µg/mL and < 3 µg/mL; range 3: ≥ 3 µg/mL

// below: answered compounds
INSERT INTO measurements (compound, label_class) VALUES
  ('CCCCCc1cc(O)c2c(c1)OC(C)(C)c1ccc(C)cc1-2', 'range 2'),
  ('CCCCCc1cc(O)c2c(c1)OC(C)(C)[C@@H]1CCC(C)=C[C@@H]21 [D9 THC, delta-9-tetrahydrocannabinol, reference compound]', 'range 3'),
  ('C=C(C)[C@@H]1CCC(C)=C[C@H]1c1c(O)cc(CCC)cc1O', 'range 1'),
  ('C=C(C)[C@@H]1CCC(C)=C[C@H]1c1c(O)cc(CCCCC)c(C(=O)O)c1O', 'range 2'),
  ('CCCCCc1cc(O)c2c(c1)OC(C)(CCC=C(C)C)C=C2 (stereo not drawn)', 'range 1'),
  ('CCCc1cc(O)c2c(c1)OC(C)(C)[C@@H]1CCC(C)=C[C@@H]21 [THCV, delta-9-tetrahydrocannabivarin]', 'range 3'),
  ('CCCCCc1cc2c(c(O)c1C(=O)O)[C@@H]1C=C(C)CC[C@H]1C(C)(C)O2 [D9 THCA, delta-9-tetrahydrocannabinolic acid]', 'range 2');

Given CCCCCc1cc(O)c(C/C=C(\C)CCC=C(C)C)c(O)c1 , name the class its Stability of Cannabinoids in AB Red places it in.
range 3

----------
Task for the reader: assign each of the following molecules its reported Stability of Cannabinoids in AB Red.
Experiment: Stability of cannabinoid and Vitamin E components of Beverage 2 (AB Red) stored at 8° C. and 21-25° C., LCMSMS over 570 days
Conditions: 21-25° C., 26 days

Use the examples below as a reference point.
INSERT INTO results (molecule, obs_value) VALUES
  ('CCCc1cc(O)c2c(c1)OC(C)(C)[C@@H]1CCC(C)=C[C@@H]21 [THCV, delta-9-tetrahydrocannabivarin]', '3.11 µg/mL'),
  ('CCCCCc1cc(O)c(C/C=C(\C)CCC=C(C)C)c(O)c1 [CBG, cannabigerol]', '4.77 µg/mL'),
  ('CCCCCc1cc(O)c2c(c1)OC(C)(C)c1ccc(C)cc1-2 [CBN, cannabinol]', '2.70 µg/mL'),
  ('C=C(C)[C@@H]1CCC(C)=C[C@H]1c1c(O)cc(CCCCC)c(C(=O)O)c1O [CBDA, cannabidiolic acid]', '1.67 µg/mL'),
  ('CCCCCc1cc(O)c2c(c1)OC(C)(C)[C@@H]1CCC(C)=C[C@@H]21 [D9 THC, delta-9-tetrahydrocannabinol, reference compound]', '12.4 µg/mL');

Give me Stability of Cannabinoids in AB Red for each of these molecules, listed below.
1. C=C(C)[C@@H]1CCC(C)=C[C@H]1c1c(O)cc(CCC)cc1O [CBDV, cannabidivarin]
2. CCCCCc1cc(O)c2c(c1)OC(C)(CCC=C(C)C)C=C2 (stereo not drawn) [CBC, cannabichromene]
3. CCCCCc1cc2c(c(O)c1C(=O)O)[C@@H]1C=C(C)CC[C@H]1C(C)(C)O2 [D9 THCA, delta-9-tetrahydrocannabinolic acid]
4. CCCCCc1cc(O)c2c(c1)OC1(C)CCC3C1C2C3(C)C (stereo not drawn) [CBL, cannabicyclol]

1. 0.19 µg/mL
2. 0.28 µg/mL
3. 1.32 µg/mL
4. 0.51 µg/mL
